molecular target: Ras-related protein Rab-2A (Canis lupus familiaris); test: Rab2 wt fluorescent GTP binding changes, either direction – biochemical, dog, bead-based flow cytometry, multiplex, primary screen (AID 760); conditions: GST-Rab2 wt beads, Bodipy-GTP binding, at 10 µM;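 further: 0% = beads with excess unlabeled GTP and 100% = no-compound control corrected for plate trend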
Out of some 190,000 compounds screened, about 360 (0.19%) were called active. Another 2% or so got no clear call; they are omitted.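 How the source made its calls: active means GTP binding activity at least 20 points away from 100%, either lowered or raised; inconclusive means signal likely due to the compound's own green fluorescence; inactive means the rest.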 Only a selection was taken, and actives are over-represented in it overall.
Permitted responses: t for active, f for inactive

CCCSc1nc2[nH]ncc2c(=O)[nH]1	f

Query block: What outcome does the record of this test show for COc1ccc(N2CCN(C(=O)CNS(=O)(=O)c3ccc(C)c(C)c3)CC2)cc1 ?
Result block: f

Query block: Can you handle CNC(=S)N1CCC(NC(=O)C(Cc2ccc(F)cc2)NC(C)=O)CC1 (configuration not stated) next?
Result block: f

Query block: Can you handle Cn1nc(-c2ccccc2)c(CO)c1Sc1ccccc1 next?
Result block: f

* * *

biological target: Ras-related protein Rab-2A (Canis lupus familiaris) (UniProt P61105); test: Rab2 wt fluorescent GTP binding changes, either direction – biochemical, dog, bead-based flow cytometry, multiplex, primary screen (AID 760); conditions: GST-Rab2 wt beads, Bodipy-GTP binding, at 10 µM;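 further: 0% = beads with excess unlabeled GTP and 100% = no-compound control corrected for plate trend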
The whole screen tested about 190,000 compounds, of which about 360 (0.19%) were called active. Another 2% or so got no clear call; they are omitted.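 The calls were made as follows: active = GTP binding activity at least 20 points away from 100%, either lowered or raised; inconclusive = signal likely due to the compound's own green fluorescence; inactive = the rest.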 This excerpt belongs to a sample that is enriched for actives.
Permitted responses: 1 for active, -1 for inactive

Consider the worked cases shown below.
Cc1ccc(N(C(=O)Cc2cccs2)C2C=CS(=O)(=O)C2)cc1Cl (stereo not given)	-1
N#C/C(=C\c1ccc(-c2cccc([N+](=O)[O-])c2)o1)C(=O)NCCN1CCOCC1	-1
COc1cccc2c1OCC(CN1CCN(C3CCCCC3)C(CCO)C1)=C2 (stereo not given)	-1

Here is the next item to consider.
Query block: What outcome does the record of this test show for Clc1ccc(CN2CCN(/N=C/c3cccnc3)CC2)cc1 ?
Result block: -1

* * *

target: Ras-related protein Rab-2A (Canis lupus familiaris); assay: Rab2 wt fluorescent GTP binding changes, either direction – biochemical, dog, bead-based flow cytometry, multiplex, primary screen (AID 760); conditions: GST-Rab2 wt beads, Bodipy-GTP binding, at 10 µM;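 further: 0% = beads with excess unlabeled GTP and 100% = no-compound control corrected for plate trend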
In all, about 190,000 compounds went through this assay and about 360 (0.19%) were called active. Inconclusive results (about 2%) are left out. Shown is part of a subset that was picked to be rich in actives.
readout_name: GTP binding activity (%)
Please state the figure in %; there is no need to write the unit.

Sample answers from the record:
COC(=O)C1=C(C)NC(=O)/C1=C/c1ccc(CNS(=O)(=O)c2ccc(C)cc2)o1	100
CCC1(CC)NC(=O)N(Cc2nc3ccccc3s2)C1=O	98
O=S(=O)(NCc1ccccc1)c1ccc(S(=O)(=O)N2CCCC2)cc1	100
CCOC(=O)CN/C=C(\C#N)c1ccc(F)cc1	102

Next compound, please.
Query block: For Cn1c(N)cc(-c2ccc(F)cc2)c(C#N)c1=O , what is its reported GTP binding activity?
Result block: 97

* * *

biological target: Ras-related protein Rab-2A (Canis lupus familiaris); experiment: Rab2 wt fluorescent GTP binding changes, either direction – biochemical, dog, bead-based flow cytometry, multiplex, primary screen (AID 760); settings: GST-Rab2 wt beads, Bodipy-GTP binding, at 10 µM;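 further: 0% = beads with excess unlabeled GTP and 100% = no-compound control corrected for plate trend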
Out of some 190,000 compounds screened, about 360 (0.19%) were called active. Roughly 2% stayed inconclusive and do not appear here. The entries come from a sample that favours actives as a whole.
readout_name: GTP binding activity

COc1cccc(CN(C)CC(=O)Nc2sc3c(c2C#N)CCC3)c1	92% (inactive)
Cc1ccc(CSc2nc3[nH]ncc3c(=O)[nH]2)cc1	79% (active)

Query block: For O=C(NCc1ccccc1Cl)C1CCN(S(=O)(=O)N2CCOCC2)CC1 , what is its reported GTP binding activity?
Result block: 104% (inactive)

Query block: Can you handle CC(NC(=O)C(=O)N/N=C/c1ccc(Cl)cc1)c1ccccc1 (stereo not drawn) next?
Result block: 98% (inactive)

Query block: Can you handle Cc1cc(C)n(CC(=O)Nc2ccc([N+](=O)[O-])cc2)n1 next?
Result block: 96% (inactive)

Query block: Can you handle O=C(Nc1ccc(F)cc1)C1CCN(C(=O)c2ccc([N+](=O)[O-])cc2)CC1 next?
Result block: 97% (inactive)

Query block: Can you handle CCCn1c(N)c(C(=O)CSc2nc3ccccc3c(=O)n2-c2ccc(OC)cc2)c(=O)[nH]c1=O next?
Result block: 92% (inactive)

Query block: Can you handle CCOC(=O)c1sc(NC(=O)CSc2n[nH]c(CC)n2)nc1C next?
Result block: 97% (inactive)

Query block: Can you handle Cc1cc(CNCc2c(C(=O)N(C)Cc3ccccc3)nc3ccccn23)nn1C next?
Result block: 101% (inactive)

Query block: Can you handle CCCOCC(O)CC(CC)C(=O)NNC(=S)Nc1ccccc1 (stereo not drawn) next?
Result block: 100% (inactive)

Query block: Can you handle C=CCN(CC=C)S(=O)(=O)c1ccc(C(=O)Nc2sc3c(c2C(N)=O)CCCCC3)cc1 next?
Result block: 101% (inactive)

Query block: Can you handle Cc1nnsc1C(=O)Nc1cccc(Cl)c1C next?
Result block: 95% (inactive)

Query block: Can you handle NC(=O)COC(=O)c1sc2cc(F)ccc2c1Cl next?
Result block: 94% (inactive)
